method: NCI Yeast Anticancer Drug Screen. Data for the bub3 strain (AID 167)
measurement_conditions: S. cerevisiae bub3 mutant strain, at 50.0 µM, stronger effect = higher value
Compounds without any hit were thinned out: in the full panel of roughly 79,000, 15% have a hit.
quantity_measured: growth inhibition (%)
Please respond with the number in % and leave the unit unwritten.

Some solved cases for reference:
compound: CCC(Cl)COP(=O)(OCC(Cl)CC)O/C(C)=C(/C)P(=O)(OCC(Cl)CC)OCC(Cl)CC (stereo not drawn)
quantitative_readout: 8.6

compound: COC(=O)C1CCC(=O)CC1
quantitative_readout: 2.4

// lookup growth inhibition for O=C1c2cc([N+](=O)[O-])ccc2-c2c(S)cccc21
25.8
